Conditions: Rat Intravenous 20 mpk
Structures can show the parent of a compound that is named as a salt.
Hi there, I'd appreciate the recorded t½ Hour for every entry that follows.
Numbers only here, please. The scale is h.

Query: Entry Cl.O=C(NO)C1(S(=O)(=O)c2ccc(Sc3ccncc3)cc2)CCOCC1 needs its t½ Hour filled in; supply it.
Reply: 0.66

Query: Supply recorded t½ Hour for Cl.O=C(NO)C1(S(=O)(=O)c2ccc(Oc3ccc(-n4cncn4)cc3)cc2)CCS(=O)(=O)CC1 here.
Reply: 0.97

Query: Dear colleague, please send me the reported t½ Hour for O=C(NO)C1(S(=O)(=O)c2ccc(Oc3ccc(C(F)(F)F)cc3)cc2)CCN(Cc2cccnc2)CC1 [Example 390, Dihydrochloride] when you can.
Reply: 1.50

Query: Supply measured t½ Hour of Cl.O=C(NO)C1(S(=O)(=O)c2ccc(Oc3ccc(C(F)(F)F)cc3)cc2)CCN(C2CC2)CC1 in your reply.
Reply: 2.85

Query: State, in one line, measured t½ Hour of O=C(NO)C1(S(=O)(=O)c2ccc(Sc3ccc(F)cc3)cc2)CCOCC1
Reply: 1.10

Query: Supply recorded t½ Hour for Cc1cc(Oc2ccc(S(=O)(=O)C3(C(=O)NO)CCNCC3)cc2)ccc1Cl.Cl here.
Reply: 1.82

Query: Note down t½ Hour recorded for C#CCN1CCC(C(=O)NO)(S(=O)(=O)c2ccc(Oc3ccc(C(C)C)cc3)cc2)CC1.Cl
Reply: 0.73

Query: Provide measured t½ Hour value, entry: O=C(O)CNc1ccc(Oc2ccc(S(=O)(=O)C3(C(=O)NO)CCSCC3)cc2)cc1
Reply: 0.78

Query: Dear colleague, please send me the reported t½ Hour for O=C(NO)C1(S(=O)(=O)c2ccc(Oc3ccccc3)cc2)CC[S+]([O-])CC1 (stereo not drawn) when you can.
Reply: 0.65

Query: Give reported t½ Hour value for COCCN1CCC(C(=O)NO)(S(=O)(=O)c2ccc(Oc3ccc(OC(F)(F)F)cc3)cc2)CC1.Cl
Reply: 2.94

Query: For the molecule Cl.O=C(NO)C1(S(=O)(=O)c2ccc(Oc3ccc(-n4ccnc4)cc3)cc2)CCOCC1 , give its reported t½ Hour.
Reply: 0.68

Query: Item Cl.O=C(NO)C1(S(=O)(=O)c2ccc(Oc3ccc4c(c3)OCCO4)cc2)CCN(C2CC2)CC1 : provide t½ Hour
Reply: 3.30

Query: Supply t½ Hour value. Item: O=C(NO)C1(S(=O)(=O)c2ccc(Oc3ccc(C(F)(F)F)cc3)cc2)CCOCC1
Reply: 1.74

Query: Fill in reported t½ Hour for this entry: CC(C)c1ccc(Oc2ccc(S(=O)(=O)C3(C(=O)NO)CCOCC3)cc2)cc1
Reply: 0.73

Query: Supply recorded t½ Hour for O=C(NO)C1(S(=O)(=O)c2ccc(Oc3ccc(SC(F)(F)F)cc3)cc2)CCOCC1 here.
Reply: 1.71

====

Target: recombinant human MMP-1 (Homo sapiens, UniProt P03956)
Construct: made in house; host or cells: transfected HT-1080 cells (provided by Dr. Harold Welgus, Washington University)
Sequence (P03956 100-469): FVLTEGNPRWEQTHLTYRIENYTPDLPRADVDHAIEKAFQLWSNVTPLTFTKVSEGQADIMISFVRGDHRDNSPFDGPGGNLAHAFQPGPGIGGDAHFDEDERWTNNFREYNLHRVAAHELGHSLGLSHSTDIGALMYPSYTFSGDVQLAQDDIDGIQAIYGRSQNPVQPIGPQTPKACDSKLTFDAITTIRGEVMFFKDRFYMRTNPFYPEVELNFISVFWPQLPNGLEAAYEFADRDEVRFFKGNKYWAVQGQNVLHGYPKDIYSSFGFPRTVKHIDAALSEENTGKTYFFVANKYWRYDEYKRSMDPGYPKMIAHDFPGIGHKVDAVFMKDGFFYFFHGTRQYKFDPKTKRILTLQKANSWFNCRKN
Assay: biochemical
Conditions: Inhibition Table A; read-out: MMP-1 IC50
pIC50: −log10 of the molar value.
VALUE_TYPE: pIC50

Query: Indicate the recorded pIC50 value for this compound: O=C(Nc1ccc(S(=O)(=O)C2(C(=O)NO)CCNCC2)cc1)c1ccccc1
Reply: < 5.00

Query: Note pIC50 for the compound shown: O=C(NO)C1(S(=O)(=O)c2ccc(Sc3ccc(F)cc3)cc2)CCN(C2CC2)CC1
Reply: < 5.00

Query: Check the records and state pIC50 for O=C(NO)C1(S(=O)(=O)c2ccc(Sc3ccc(F)cc3)cc2)CCNCC1
Reply: < 5.00

Query: Return the recorded pIC50 value; entry: CCCCOC1CCN(c2ccc(S(=O)(=O)C3(C(=O)NO)CCOCC3)cc2)CC1
Reply: < 5.00

Query: Quickly give me recorded pIC50 for O=C(NO)C1(S(=O)(=O)c2ccc(Sc3ccc(Cl)cc3)cc2)CCOCC1
Reply: < 5.00

Query: Determine from records and report pIC50 for O=C(NO)C1(S(=O)(=O)c2ccc(SC3CCCCC3)cc2)CCNCC1
Reply: < 5.00

Query: Entry O=C(CS(=O)(=O)c1ccc(NC(=O)c2ccccc2)cc1)NO needs its pIC50 filled in; supply it.
Reply: < 5.00

Query: Retrieve pIC50 measured for O=C(NO)/C(=C\c1ccccc1)S(=O)(=O)c1ccc(Oc2ccccc2)cc1 and print it.
Reply: < 5.00

Query: Supply reported pIC50 belonging to this compound: O=C(NO)C1(S(=O)(=O)c2ccc(N3CCC(c4ccccc4)CC3)cc2)CCOCC1
Reply: < 5.00

Query: Return the recorded pIC50 value; entry: O=C(NO)C1(S(=O)(=O)c2ccc(N3CCN(c4ccccc4)CC3)cc2)CCOCC1
Reply: 5.00

Query: Quickly give me recorded pIC50 for C#CCN1CCC(C(=O)NO)(S(=O)(=O)c2ccc(Sc3ccc(F)cc3)cc2)CC1
Reply: < 5.00

Query: Respond only with pIC50 recorded for O=C(NO)C1(S(=O)(=O)c2ccc(Oc3ccccc3)cc2)CCN(C2CC2)CC1
Reply: 6.40

Query: Hello, please tell me recorded pIC50 for this one: CC(C)(C(=O)NO)S(=O)(=O)c1ccc(Oc2ccccc2)cc1
Reply: 6.66

Query: Identify pIC50 associated with the compound O=C(NO)C1(S(=O)(=O)c2ccc(Oc3ccccc3)cc2)CCN(CC2CC2)CC1
Reply: < 5.00

Query: Provide one value: measured pIC50 of CN1CCC(C(=O)NO)(S(=O)(=O)c2ccc(Oc3ccccc3)cc2)CC1
Reply: 6.33

====

Hi there, I'd appreciate the recorded pIC50 for every entry that follows.
Target: recombinant human MMP-2 (Homo sapiens, UniProt P08253)
Sequence (P08253 110-660): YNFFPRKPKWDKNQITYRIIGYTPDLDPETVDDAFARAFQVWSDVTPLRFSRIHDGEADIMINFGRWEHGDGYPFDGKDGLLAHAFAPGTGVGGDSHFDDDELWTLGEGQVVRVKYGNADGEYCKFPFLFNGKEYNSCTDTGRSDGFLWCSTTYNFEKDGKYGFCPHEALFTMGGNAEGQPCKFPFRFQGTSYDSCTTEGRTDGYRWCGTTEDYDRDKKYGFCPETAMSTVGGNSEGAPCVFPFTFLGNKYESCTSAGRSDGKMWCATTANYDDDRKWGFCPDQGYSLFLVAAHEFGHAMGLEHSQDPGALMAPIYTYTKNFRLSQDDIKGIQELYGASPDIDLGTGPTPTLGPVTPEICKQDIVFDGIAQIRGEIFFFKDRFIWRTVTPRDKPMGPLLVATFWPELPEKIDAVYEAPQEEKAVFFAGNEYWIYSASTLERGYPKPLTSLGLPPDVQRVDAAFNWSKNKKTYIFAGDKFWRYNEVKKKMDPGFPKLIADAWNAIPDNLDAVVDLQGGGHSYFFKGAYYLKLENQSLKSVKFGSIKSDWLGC
Assay: biochemical
Details: Inhibition Table B; read-out: MMP-2 IC50
Where a name gives a salt, the structure may show the parent alone.
# reply with the number alone; pIC50 is -log10 of concentration in mol/L

Query: Give the reported value of pIC50 for this record: O=C(NO)C1(S(=O)(=O)c2ccc(Sc3ccc(F)cc3)cc2)CCOCC1
Reply: 9.10

Query: Input O=C(NO)C1(S(=O)(=O)c2ccc(Sc3ccccc3)cc2)CCOCC1 , output reported pIC50.
Reply: 9.00

Query: Fill in reported pIC50 for this entry: O=C(NO)C1(S(=O)(=O)c2ccc(-c3ccc(Cl)cc3)cc2)CCNCC1 [Example 91, Monohydrochloride]
Reply: 8.82

Query: Provide only the value of recorded pIC50 for O=C(NO)C1(S(=O)(=O)c2ccc(Sc3ccncc3)cc2)CCSCC1 [Example 119, Monohydrochloride]
Reply: 8.82

Query: Give the measured pIC50 for COc1ccc(Sc2ccc(S(=O)(=O)C3(C(=O)NO)CCOCC3)cc2)cc1
Reply: 9.22

Query: Look up and report measured pIC50 for this entry: Cc1cc(Oc2ccc(S(=O)(=O)C3(C(=O)NO)CCNCC3)cc2)ccc1F [Example 83, Monohydrochloride]
Reply: 8.92

====

Give measured pIC50 for each item. Keep answers brief.
Biological target: recombinant human MMP-13 (Homo sapiens, UniProt P45452)
Test: biochemical
Settings: Inhibition Table B; read-out: MMP-13 IC50
Where a name gives a salt, the structure may show the parent alone.
Quick note: pIC50 values are minus log10 of concentrations in mol/L.

Query: Quote recombinant human MMP-13 (Homo sapiens, UniProt P45452) pIC50 for entry Cc1cc(Oc2ccc(S(=O)(=O)C3(C(=O)NO)CCN(CC(=O)O)CC3)cc2)ccc1Cl [Example 80, Monohydrochloride] .
Reply: 9.70

Query: Send back recombinant human MMP-13 (Homo sapiens, UniProt P45452) pIC50 of Cc1cc(Oc2ccc(S(=O)(=O)C3(C(=O)NO)CCNCC3)cc2)ccc1F [Example 83, Monohydrochloride] only.
Reply: 8.82

Query: Specify pIC50 for O=C(NO)C1(S(=O)(=O)c2ccc(Oc3ccc(F)c(Cl)c3)cc2)CCNCC1 [Example 84, Monohydrochloride] , system recombinant human MMP-13 (Homo sapiens, UniProt P45452).
Reply: 8.60

Query: Please indicate recorded pIC50 of CC(=O)N1CCN(c2ccc(Oc3ccc(S(=O)(=O)C4(C(=O)NO)CCSCC4)cc3)cc2)CC1 [Example 112] measured with recombinant human MMP-13 (Homo sapiens, UniProt P45452).
Reply: 8.49

Query: Recall the reported pIC50 of CC(C)c1ccc(Oc2ccc(S(=O)(=O)C3(C(=O)NO)CCOCC3)cc2)cc1 [Example 125] when tested on recombinant human MMP-13 (Homo sapiens, UniProt P45452).
Reply: 9.30

Query: # return pIC50 for O=C(CS(=O)(=O)c1ccc(NC(=O)Nc2ccccc2)cc1)NO [Example 75] , test system: recombinant human MMP-13 (Homo sapiens, UniProt P45452)
Reply: 6.05

Query: Jot down pIC50 (recombinant human MMP-13 (Homo sapiens, UniProt P45452)) of CC(=O)N1CCC(C(=O)NO)(S(=O)(=O)c2ccc(Sc3ccccc3)cc2)CC1.Cl [Example 36, Monohydrochloride] .
Reply: 9.22

Query: // output pIC50; input O=C(NO)C1(S(=O)(=O)c2ccc(Sc3ccccc3)cc2)CCOCC1 [Example 95] ; system recombinant human MMP-13 (Homo sapiens, UniProt P45452)
Reply: 9.30

Query: Provide pIC50, system recombinant human MMP-13 (Homo sapiens, UniProt P45452), entry O=C(NO)C1(S(=O)(=O)c2ccc(Oc3ccccc3)cc2)CCSCC1 [Example 109]
Reply: 9.52

Query: Give the observed pIC50 of Cl.O=C(NO)C1(S(=O)(=O)c2ccc(Oc3ccc(Cl)cc3)cc2)CCNCC1 [Example 93, Monohydrochloride] for recombinant human MMP-13 (Homo sapiens, UniProt P45452).
Reply: 9.15

Query: # return pIC50 for O=C(O)CN1CCC(C(=O)NO)(S(=O)(=O)c2ccc(Sc3ccccc3)cc2)CC1 [Example 87, Monohydrochloride] , test system: recombinant human MMP-13 (Homo sapiens, UniProt P45452)
Reply: 9.46

Query: State measured pIC50 of the compound O=C(NO)C1(S(=O)(=O)c2ccc(N3CCN(CCO)CC3)cc2)CCOCC1 [Example 127] with recombinant human MMP-13 (Homo sapiens, UniProt P45452).
Reply: 7.40

Query: Please report pIC50 with recombinant human MMP-13 (Homo sapiens, UniProt P45452) for item O=C(NO)C1(S(=O)(=O)c2ccc(F)cc2)CCOCC1 [Example 66] .
Reply: 4.44
